Molecular target: T1, T cell receptor (TCR) Vγ9 (TRGV9) (human, UniProt Q99603 21-122)
T1 chain (looked up): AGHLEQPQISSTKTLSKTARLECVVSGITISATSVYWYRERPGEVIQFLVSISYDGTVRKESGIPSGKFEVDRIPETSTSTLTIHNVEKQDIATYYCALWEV
Experiment: cell-based or functional assay
Can you tell me IFNγ, Luminex (supernatant) for the items I'm about to list?
Hey, just send me the number, nothing else.

Incoming: Record request: IFNγ, Luminex (supernatant) value, item VG9B98 (antibody, human IgG1, kappa, V domains shown) VH: EVQLVQSGGDLVKSGGSLRLSCAASGFTFSSYSMYWVRQAPGKGLEWVSSIGSSSTYIFYADSVKGRFTISRDNAMTSLYLQMNRLGAEDSAVYYCARDGELGPFEYWGQGTLVTVSS VL: EIVLTQSPGTLSLSPGERATLSCRASQSVSTSYLAWFQQKPGQAPRLLIFGTSSRATGIPDRFSGSGSGTDFTLTISRLEPEDFAVYHCLQYGRSPLTFGGGTKVDIKR
Outgoing: 305

Incoming: Consider the binder shown here: VG9B73 (antibody, human IgG1, kappa, V domains shown) VH: EVQLVQSGGGLVKPGGSLRLSCAASGFTFSNYDMNWVRQAPGKGLEWVSSISSSSSYIYYADSVKGRFTISRDNARNSLFLQMSSLRAEDTAVYYCAREIGVTGTTYYQDYGMDVWGQGTTVTVSS VL: EIVMTQSPGTLSLSPGERATLSCRASQSFSSNYLAWYQQKPGQAPRLLIYGASSRATGIPDRFSGSGSGTDFTLTISRLEPEDFALYYCQQYGSSPPFTFGQGTKVEIKR What is its recorded IFNγ, Luminex (supernatant)?
Outgoing: 1050

Incoming: Item under review: VG9B463 (antibody, human IgG1, lambda, V domains shown) VH: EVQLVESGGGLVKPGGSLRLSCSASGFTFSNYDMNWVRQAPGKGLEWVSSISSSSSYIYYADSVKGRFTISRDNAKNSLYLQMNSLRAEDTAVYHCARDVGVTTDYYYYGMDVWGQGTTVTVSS VL: QPVLTQSSSASGTPGQRVTISCSGSSSNIGSNTVNWYQQFPGTAPKLLIYTNTQRPSGVPDRFSGSKSGTLVSLAISGLQSEDEADYYCAAWDDSLNAWVFGGGTKLTVLG . Reported IFNγ, Luminex (supernatant)?
Outgoing: 364

Incoming: Requested field: IFNγ, Luminex (supernatant). Item: VG9B430 (antibody, human IgG1, kappa, V domains shown) VH: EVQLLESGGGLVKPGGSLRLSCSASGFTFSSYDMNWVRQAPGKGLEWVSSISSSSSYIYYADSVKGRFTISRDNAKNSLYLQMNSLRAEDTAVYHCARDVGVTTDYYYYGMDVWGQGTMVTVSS VL: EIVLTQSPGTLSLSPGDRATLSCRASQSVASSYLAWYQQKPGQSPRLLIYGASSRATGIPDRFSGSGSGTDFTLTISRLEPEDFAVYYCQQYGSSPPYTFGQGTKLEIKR
Outgoing: 1490

Incoming: # IFNγ, Luminex (supernatant) lookup, item VG9B469 (antibody, human IgG1, kappa, V domains shown) VH: EVQLVESGGGLVKPGGSLRLSCAASGFTFSHYDMNWVRQAPGKGLEWVSSISSSSSYIFYADSVKGRFTISRDNAKNSLLLQMNSLRAEDTAVYHCARDRGVGDTSDYYSFGLDVWGQGTMVTVSS VL: DIVMTQSPGTLSLSPGERATLSCRASQNVSSTYLAWYQQKPGQAPRLLIYGACSRATGIPDRFSGSGSGTDFTLTISRLEPEDYAVYYCQQYGSSPPYTFGRGTKLEIKR
Outgoing: 1580

Incoming: Fill blank: measured IFNγ, Luminex (supernatant) of the binder VG9B104 (antibody, human IgG1, kappa, V domains shown) VH: EVQLVESGGGLVKPGGSLRLSCAASGFTFSVYSMNWVRQAPGKGLEWVSSIGSSSSYIFYADSVKGRFTISRDNAKNSLYLQMNSLRAEDTAVYYCGRDHDYGGLDYWGQGTLVTVSS VL: EIVLTQSPGTLSLSPGERATLSCRASQSVSSSYLAWYQQKPGQAPRLLIYGPSNRATDIPDRFSGTGSGTDFTLTISRLEPEDFAVYYCQQYGRSPLTFGGGTKVEIKR is ____.
Outgoing: 2440

Incoming: Find the recorded IFNγ, Luminex (supernatant) belonging to VG9B198 (antibody, human IgG1, lambda, V domains shown) VH: QVQLQESGPGLVKPSETLSLTCTVSGDSISSIYWSWIRQSAGKGLEWIGRIYTTDITNYNPSLKSRVTMSADTSKNQLSLKLTSVTAADTAVYYCAKNGYSYGGFNYWGQGTLVTVSS VL: QSVLTQPPSVSGAPGQRVTISCTGSSSNIGAGYDVHWYQRLPGTAPKLLIYGDSYRPSGVPDRFSGSKSGTSASLAITGLQAEDEADYYCQSYDSSLSVVVFGGGTKLTVLG and report it.
Outgoing: 324
